Parameter: pIC50. Scope: all listed entries.
- System: VCaP
- assay-protocol: Antiproliferative activity against human VCaP cells assessed as reduction in cell viability
- Format: functional, cell-based
Just so you know, pIC50 here is -log10 of the concentration in molar units; reply with that number alone.

Before answering, review these 2 worked examples.
- compound: "CC(O)(C[S+]([O-])c1ccccc1OC(F)(F)F)C(=O)Nc1ccc([N+](=O)[O-])cc1C(F)(F)F (stereo not given)"
  pIC50: 4.68
- compound: "CC(O)(C[S+]([O-])c1ccc(C(F)(F)F)cc1)C(=O)Nc1ccc([N+](=O)[O-])cc1C(F)(F)F (stereo not given)"
  pIC50: 4.62

Q. Field: pIC50 (VCaP). Entry: CC(O)(C[S+]([O-])c1ccccn1)C(=O)Nc1ccc([N+](=O)[O-])cc1C(F)(F)F (stereo not given)
A. 4.00

Q. Query for VCaP: what pIC50 does the record show for CC(O)(C[S+]([O-])c1ccc(OC(F)(F)F)cc1)C(=O)Nc1ccc(C#N)c(C(F)(F)F)c1 (stereo not given) ?
A. 4.27
